- Tested on: SEM cells
- Protocol description: cell viability relative to DMSO control; higher = less cytotoxic
- Condition info: HPLM + 10% dialyzed FBS; 48 h; 0.0211 µM
Readout kind: cell viability (%)

INSERT INTO assay_data (compound, target_system, observed) VALUES
  ('CN(c1nccc(=O)[nH]1)C1CCN(c2nc3ccccc3n2Cc2ccc(F)cc2)CC1', 'SEM cells', 113),
  ('NC1CCC(Nc2nc(Nc3ccc(C(=O)N4CCCCC4)cc3)c3ncn(-c4cccc(F)c4)c3n2)CC1 (stereo not given)', 'SEM cells', 96.6),
  ('C=CC(=O)Nc1cccc(Oc2nc(Nc3ccc(N4CCN(C)CC4)cc3OC)ncc2Cl)c1', 'SEM cells', 65.8),
  ('C[C@]12CC[C@@H]3c4ccc(O)cc4CC[C@H]3[C@@H]1CC[C@@H]2O', 'SEM cells', 115),
  ('CC1=CC=C2\N=C/3N(CC[C@@]3(O)C(=O)C2=C1)C4=CC=CC=C4', 'SEM cells', 87.3);

These measurements were taken from the supplement of paper PMC11451515.
